Reported Tm is given for each of the following sequences.
- method: melting temperature; fluorescence melt of hairpins on a sequencing array, two-state fit, raised by 9.35 °C to match UV melts
- conditions-used: sodium 0.088 M
Just the number please, in °C, no unit attached.

Examples with their reported Tm follow.
sequence_string="GGTTCGGGAAACCGAACC (((((((....)))))))" observed_result=69.2
sequence_string="GATTCCGAAAGGAGAATC ((((((....)))..)))" observed_result=32.7
sequence_string="GGATTGGGAAACCAATTC (.(((((....))))).)" observed_result=44.2
sequence_string="GATCACAACTGTGATC ((((((....))))))" observed_result=58.9
sequence_string="GCAATGCGAAAGCACTGC (((.(((....))).)))" observed_result=51.6

Lab note: next sequence to report on.
What value of Tm has been recorded for this entry: CGTGTACGGAAACGTACG (((..(((....)))))) 46

---

Reported folding enthalpy is given for each of the following sequences.
- method: folding enthalpy; higher = less favourable; fluorescence melt of hairpins on a sequencing array, two-state fit
- conditions-used: sodium 0.088 M
Just the number please, in kcal/mol, no unit attached.

Examples with their reported folding enthalpy follow.
sequence_string="GACGTTGGAAACAACGTC (((((((....)))))))" parameter_measured="folding enthalpy" unit_annotation=kcal/mol observed_result=-39.1
sequence_string="GATCGTCGGTACGATC ((((((....))))))" parameter_measured="folding enthalpy" unit_annotation=kcal/mol observed_result=-27.3
sequence_string="GGGCGCGAAAGCGCACCC ((((((....)))..)))" parameter_measured="folding enthalpy" unit_annotation=kcal/mol observed_result=-9.21

Lab note: next sequence to report on.
What value of folding enthalpy has been recorded for this entry: GTTGTGGGAAACTGCAAC ((((..(....)..)))) -12.7

---

- method: folding enthalpy; higher = less favourable; fluorescence melt of hairpins on a sequencing array, two-state fit
- conditions-used: sodium 0.088 M
Reported folding enthalpy is given for each of the following sequences.
Just the number please, in kcal/mol, no unit attached.

Examples with their reported folding enthalpy follow.
sequence_string="GTTCGTGGAAACACGAGC (.(((((....))))).)" parameter_measured="folding enthalpy" observed_result=-21.5
sequence_string="GTCCACGGAAACGTAGAC (((.(((....))).)))" parameter_measured="folding enthalpy" observed_result=-26.6
sequence_string="GCAAGCGGAAACACTTGC (((((.(....).)))))" parameter_measured="folding enthalpy" observed_result=-46.6
sequence_string="GTCCCCCGAAAGGGTGAC (((.(((....))).)))" parameter_measured="folding enthalpy" observed_result=-28.1

What value of folding enthalpy has been recorded for this entry: GATCAGTGAACTGATC ((((((....)))))) -36.2

Request: CGGCCTCGGAAACGACCG (((..(((....)))))) -18.7

Request: GAATAAGGAAACTTGTTC (((.(((....))).))) -17

---

- method: melting temperature; fluorescence melt of hairpins on a sequencing array, two-state fit, raised by 9.35 °C to match UV melts
- conditions-used: sodium 0.088 M
parameter-measured: Tm (°C)
Just the number please, in °C, no unit attached.

Examples with their reported Tm follow.
sequence_string="GGACCCGAAAGGGCTTCC ((((((....)))..)))" observed_result=40.6
sequence_string="GCACCGCGAAAGCTCTGC (((..((....))..)))" observed_result=27.4
sequence_string="GGTGACGAAAGTCGACC ((((((....))).)))" observed_result=53.4
sequence_string="GACAACGAAAGTTGAGTC ((((((....)))..)))" observed_result=34.8
sequence_string="GACCGCGAAAGCGTAGTC ((((((....)))..)))" observed_result=46.5
sequence_string="GCACTTCGAAAGAACTGC (((.(((....))).)))" observed_result=34.4
sequence_string="GGGATCGGAAACAATCCC (((((.(....).)))))" observed_result=40.6
sequence_string="GACATCCCGAAAGGGGTC (((..(((....))))))" observed_result=34.4

Lab note: next sequence to report on.
What value of Tm has been recorded for this entry: GACCCTGGAAACAAGGTC ((((.((....)).)))) 35.3
